src = patent US20160032001A1

Target: T1, human RANKL protein (human, UniProt O14788 140-317, limits assumed)
T1 sequence (looked up): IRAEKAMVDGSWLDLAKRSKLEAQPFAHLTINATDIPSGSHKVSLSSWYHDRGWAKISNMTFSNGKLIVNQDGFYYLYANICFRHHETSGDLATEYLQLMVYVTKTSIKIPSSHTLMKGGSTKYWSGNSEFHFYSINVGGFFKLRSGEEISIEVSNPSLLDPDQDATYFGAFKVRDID
Experiment: surface plasmon resonance
quantity: kon (M⁻¹ s⁻¹)
Respond with the bare value in M⁻¹ s⁻¹.

* clone 408 rabbit anti-RANKL antibody (antibody, V domains shown) VH: QSVEESGGRLVTPGTPLTLTCTVSGFSLSTDVVSWVRQAPGKGLEWIGYTWNGGATFYASWAKGRFTFSKTSTTVDLKITSPTTEDTATYFCARGYNGMDPWGPGTLVTVSS VL: DMTQTPASVEAAVGGAVTIKCQASQNIGSNLAWYHQKPGQPPKLLISKASTLASGVPSRFKGSGSGTEFTLAISDLECADAATYYCQQGYTTKNVVNPFGGGTEVVVK | 607000
* clone 327 rabbit anti-RANKL antibody (antibody, V domains shown) VH: QSLEESGGRLVTPGTPLTLTCTVSGFSLSKYEINWVRQAPGKGLEWIGYIDVGSGTWYASWAKGRFTISKTSTTVALRITSPTTEDTATYFCSRQYNPMDLWGPGTLVTVSS VL: DMTQTPASVEAAVGGTVTIKCQASQNIGSNLAWYQQKPGQRPKLLIYSASTLASGVPSRFKGSGSGTQFTLTISGVQCDDAATYYCQQGYSVGNVNNAFGGGTEVVVK | 141000
* clone 91 rabbit anti-RANKL antibody (antibody, V domains shown) VH: QSLEESGGRLVKPDETLTLTCTVSGSSLYNYEINWVRQAPGKGLEWIGYIDVGSGTWYASWAKGRFTISKTSTTVDLKITSPTTEDTATYFCTRKYNPMDLWGPGTLVTVSS VL: DMTQTPASVEVAVGGTVTIKCQASQNIGSNLAWYQQKPGQPPKLLIYSTSTVASGVPSRFKGSGFGTQFTLTISGVQCDDAATYYCQQGYSAGNVNNPFGGGTEVVVK | 464000
* clone 23 rabbit anti-RANKL antibody (antibody, V domains shown, also called RabMAb 23; parent 23 rabbit antibody) VH: QEQLKESGGGLVTPGGTLTLTCTASGFSLSSDGMSWVRQAPGKGLEWIGYIYSGSSPYYANWAKGRFTISKTSSTTVDLKMTSLTTEDTATYFCARHGSGGGWYLDIWGPGTLVTVSS VL: AYDMIQTPASVEVAVGGTVTINCQASQTIGTNLAWYQQKPGQRPKLLIYAASTLPSGVSSRFKGSGSGTQFTLTISDVECSDAATYYCQQAYSVGNVDNAFGGGTEVVVK | 950000

Prompt line: Reported kon for clone EBI-51-22 rabbit anti-RANKL antibody (antibody, V domains shown) VH: QSVEESGGRLVTPGTLLTLTCTVSGFSLSTDVLSWVRQAPGKGLEWIGYTWSGGSTYYASWAKGRFTISKTSSTTVDLKITSPTTEDTATYFCARGFNPFDPWGPGTLVTVSS VL: DMTQTPASVSDPVGGTVTIKCQASQNIGSNLAWYQQKPGQRPKLLIYRASTLASGVSSRFKGSGSGTQFTLTISDLECADAATYYCQQGYSAGNVDNNAFGGGTEVVVK : what is it?
Response line: 880000
